ASSAY_TEXT: Cytotoxicity evaluation on HepG2 cell line (MTT)
Assay type: cell-based
TEST_SETTINGS: human, HepG2 cells
EXPERIMENTAL_ENDPOINT: CC50 at 72 h (µM)

COMPOUND | EXPERIMENTAL_ENDPOINT | COMPARATIVE_SIGN | MEASUREMENT
Cc1ccc(C(=O)Nc2ccc(S(=O)(=O)O)c3cc(S(=O)(=O)O)cc(S(=O)(=O)O)c23)cc1NC(=O)c1cccc(NC(=O)Nc2cccc(C(=O)Nc3cc(C(=O)Nc4ccc(S(=O)(=O)O)c5cc(S(=O)(=O)O)cc(S(=O)(=O)O)c45)ccc3C)c2)c1 [Suramin, reference compound] | CC50 at 72 h | > | 100
COc1ccc(S(=O)(=O)Cc2nc3c(Sc4ccc(Cl)cc4)cc(Cl)cn3c2[N+](=O)[O-])cc1 [Compound 3f] | CC50 at 72 h | > | 3.9
O=[N+]([O-])c1c(CS(=O)(=O)CCC(F)(F)F)nc2c(Sc3ccc(Cl)cc3)cc(Cl)cn12 [Compound 3i] | CC50 at 72 h | > | 6.2
COc1cccc2c1C(=O)c1c(O)c3c(c(O)c1C2=O)C[C@@](O)(C(=O)CO)C[C@@H]3O[C@H]1C[C@H](N)[C@H](O)[C@H](C)O1 [Doxorubicin, reference compound] | CC50 at 72 h | = | 0.2
O=[N+]([O-])c1c(CS(=O)(=O)c2ccc(Cl)cc2)nc2c(Sc3ccc(Cl)cc3)cc(Cl)cn12 [Compound 3b] | CC50 at 72 h | = | 8.9

----------
ITEM_SMILES | melting point
O=[N+]([O-])c1c(CS(=O)(=O)c2ccc(F)cc2)nc2c(Sc3ccc(Cl)cc3)cc(Cl)cn12 | 197 °C
O=[N+]([O-])c1c(CS(=O)(=O)CCC(F)(F)F)nc2c(-c3ccncc3)cc(Cl)cn12 | 184 °C
O=[N+]([O-])c1c(CS(=O)(=O)CCC(F)(F)F)nc2c(Sc3ccc(Cl)cc3)cc(Cl)cn12 | 183 °C
O=[N+]([O-])c1c(CS(=O)(=O)c2ccc(OC(F)(F)F)cc2)nc2c(Br)cc(Cl)cn12 | 178 °C
O=[N+]([O-])c1c(CS(=O)(=O)c2ccc(O)cc2)nc2c(Sc3ccc(Cl)cc3)cc(Cl)cn12 | 241 °C
O=[N+]([O-])c1c(CS(=O)(=O)c2ccc(Cl)cc2)nc2c(Sc3ccc(Cl)cc3)cc(Cl)cn12 | 221 °C
O=[N+]([O-])c1c(CS(=O)(=O)c2ccc(OC(F)(F)F)cc2)nc2c(Sc3ccc(Cl)cc3)cc(Cl)cn12 | 173 °C
COc1ccc(S(=O)(=O)Cc2nc3c(Br)cc(Cl)cn3c2[N+](=O)[O-])cc1 | 226 °C
CC(C)S(=O)(=O)Cc1nc2c(Br)cc(Cl)cn2c1[N+](=O)[O-] | 183 °C
O=[N+]([O-])c1c(CS(=O)(=O)C2CC2)nc2c(Br)cc(Cl)cn12 | 250 °C
O=[N+]([O-])c1c(CS(=O)(=O)c2ccc(O)cc2)nc2c(Br)cc(Cl)cn12 | 242 °C
O=[N+]([O-])c1c(CS(=O)(=O)c2ccc(Cl)cc2)nc2c(Br)cc(Cl)cn12 | 222 °C
CC(C)S(=O)(=O)Cc1nc2c(Sc3ccc(Cl)cc3)cc(Cl)cn2c1[N+](=O)[O-] | 208 °C
O=[N+]([O-])c1c(CS(=O)(=O)C2CC2)nc2c(Sc3ccc(Cl)cc3)cc(Cl)cn12 | 196 °C
O=[N+]([O-])c1c(CS(=O)(=O)c2ccc(C(F)(F)F)cc2)nc2c(Cl)cc(Cl)cn12 | 196 °C
O=[N+]([O-])c1c(CS(=O)(=O)c2ccc(C(F)(F)F)cc2)nc2c(Sc3ccc(Cl)cc3)cc(Cl)cn12 | 222 °C
